- study.target: human GALR1 (Homo sapiens, UniProt P47211)
- Construct: expressed in transfected cells
- Sequence (P47211 1-349): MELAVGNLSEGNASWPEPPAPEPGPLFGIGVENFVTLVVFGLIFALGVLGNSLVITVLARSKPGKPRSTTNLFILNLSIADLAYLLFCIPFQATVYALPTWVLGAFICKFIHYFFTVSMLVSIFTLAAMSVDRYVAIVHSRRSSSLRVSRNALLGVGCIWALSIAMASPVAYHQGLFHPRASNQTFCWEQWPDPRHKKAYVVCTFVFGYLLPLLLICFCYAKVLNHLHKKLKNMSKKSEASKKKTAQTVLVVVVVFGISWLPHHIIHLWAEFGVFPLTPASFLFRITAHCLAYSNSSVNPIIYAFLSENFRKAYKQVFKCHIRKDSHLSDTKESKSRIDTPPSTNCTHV
- assay.info: Radioligand binding assay, cloned receptor
- setup.conditions: Table 2; read-out: hGALR1 Ki
- Procedure: For binding assays, pellets of transfected cells are suspended in ice-cold buffer (20 mM Tris.HCl, 5 mM EDTA, pH 7.4) and homogenized by sonication for 7 sec. The cell lysates are centrifuged at 200×g for 5 min at 4° C. The supernatants are then centrifuged at 40,000×g for 20 min at 4° C. […] Protein concentrations are determined by the method of Bradford (1976) using bovine serum albumin as the standard. […]

[
  {
    "compound": "CCCCc1ccc(-c2cc(=O)[nH]c3[nH]c(=O)[nH]c(=O)c23)s1 [Example 37]",
    "Ki": "> 50 µM"
  }
]
